- Test system: Zika virus NS2B-NS3 protease (linked construct)
- protocol: Primary screen NINDS Rhodamine qHTS for Zika virus inhibitors (AID 1347160); also: nearly all actives have a fitted effect of over 55% in size
- assay setup: purified NS2B-NS3 protease, Rhodamine110 substrate fluorescence; series mostly up to 57.1 µM
Inconclusive results are not listed. Active and inactive are the calls of the source. Calls follow the shape of the dose curve; as a rule, active = well fitted inhibition curve with a large enough effect; inconclusive = small, poorly fitted or top-dose-only effect; inactive = no such curve, though single readings can be large or run the other way. Where a SMILES comes first, the peptide text is derived from it. [ ]: non-standard residue; d: D form.
Would you mind answering with one of these outcomes? 1 for active, -1 for inactive

NC(=O)[C@H]1CCCCc2c1[nH]c1ccc(Cl)cc21 : -1
C[C@@H](OC(=O)/C=C/c1ccc(O)cc1)C1=C[C@]2(C=C[C@@H]3C(C(=O)O)=CO[C@@H](O[C@@H]4O[C@H](CO[C@@H]5O[C@H](CO)[C@@H](O)[C@H](O)[C@H]5O)[C@@H](O)[C@H](O)[C@H]4O)[C@@H]32)OC1=O : -1
CC(=O)N[C@H](Cc1ccc(O)cc1)C(=O)N[C@H](CCCN=C(N)N)C(=O)N[C@H](Cc1ccccc1)C(N)=O (Ac-[dY]-[dR]-[dF]-NH2) : -1
O=C(O[C@H]1[C@@H]2C=CO[C@@H](O[C@@H]3O[C@H](CO)[C@@H](O)[C@H](O)[C@H]3O)[C@@H]2[C@@]2(CO)O[C@@H]12)c1ccc(O)cc1 : -1
C=C1CC[C@H]2[C@@](C)(CCC[C@@]2(C)C(=O)O)[C@@H]1CCC(C)CCO (stereo not given in full) : -1
C=C1CCC2C(C)(C)C(O)CCC2(C)C1CCC(C)CCOC(=O)CCC(=O)O (stereo not given) : -1
O=C(O)Cc1nn(Cc2nc3cc(C(F)(F)F)ccc3s2)c(=O)c2nccnc12 : -1
CC1=CC(=O)OC(C)(CC(C)(O)C(=O)O)C1 (stereo not given) : -1

Tell me the assay call for C=C[C@@]1(C)CC(=O)C2[C@](C)(O1)[C@@H](OC(C)=O)[C@@H](O)[C@H]1C(C)(C)CCC[C@]21C (stereo not given in full) please.
-1

What do we get for C[C@@H]1CC[C@]2(C(=O)O)CC[C@]3(C(=O)O)C(=CCC4[C@@]5(C)CC[C@H](O[C@@H]6O[C@@H](C)[C@H](O[C@@H]7O[C@H](CO)[C@@H](O)[C@H](O)[C@H]7O)[C@@H](O)[C@H]6O)C(C)(C)C5CC[C@]43C)C2[C@H]1C (stereo not given in full) ?
-1

What do we get for COC1CCCC/C(C)=C/C2C=C(C)C(C)C3C(CC(C)C)NC(=O)C23C(=O)C1 (stereo not given) ?
-1

Reference source for all entries: PubChem BioAssay (NCATS)
